Biological target: T1, HLA-B*07 (human)
T1 construct: MHC monomer made peptide-receptive by UV cleavage of a UV-sensitive ligand; also called peptide-receptive MHC class I monomer
Assay: UV peptide-exchange ELISA; +++ = yield >50%
From the text: Candidate peptides for T cell based therapies according to the present invention were further tested for their MHC binding capacity (affinity). The individual peptide-MHC complexes were produced by UV-ligand exchange, where a UV-sensitive peptide is cleaved upon UV-irradiation, and exchanged with the peptide of interest as analyzed. Only peptide candidates that can effectively bind and stabilize the peptide-receptive MHC molecules prevent dissociation of the MHC complexes. […]
I'd be grateful if you could share measured peptide exchange yield for these entries.

Given item RPAATAVISL [RPAATAVISL (SEQ ID NO: 237)] , the value recorded as its peptide exchange yield is 50 to 75%

Given item APSARVGVC [APSARVGVC (SEQ ID NO: 261)] , the value recorded as its peptide exchange yield is 50 to 75%

Given item APREEQQRSL [APREEQQRSL (SEQ ID NO: 287)] , the value recorded as its peptide exchange yield is 50 to 75%
